Assay: Apparent (surface) pKa of the LNP formulation (TNS assay)
Assay type: physicochemical
Details: Table 1A
PROPERTY_LABEL: pKa

• CCCCCCCCCOC(=O)CCCCCCCN(CCO)CCCCCCCC(=O)OC(CCC)CCCCCCCC (stereo not drawn) = 6.64
• CCCCCCCCCOC(=O)CCCCCCCN(CCCN)CCCCCCCC(=O)OC(CCCCCCCC)CCCCCCCC = 8.50
• CCCCCCCCCOC(=O)CCCCCCCN(CCCO)CCCCCCCC(=O)OC(CCCCCCCC)CCCCCCCC = 6.78
• CCCCCCCCCOC(=O)CCCCCCCN(CCCCCCCC(=O)OC(CCCCCCCC)CCCCCCCC)CCCNS(C)(=O)=O = 6.78
• CCCCCCCCC(CCCCCCCC)OC(=O)CCCCCCCN(CCO)CCCC(=O)OCCCCCCC = 6.51
• CCCCCCCCC(CCCCCC)C(=O)OCCCCCCCCCN(CCO)CCCCCCCCCOC(=O)C(CCCCCC)CCCCCCCC (stereo not drawn) = 6.38
• CCCCCCCCCOC(=O)CCCCCCCN(CCCCCCCC(=O)OC(CCCCCCCC)CCCCCCCC)CCN1CCOCC1 = 6.13
• CCCCCCCCC(CCCCCCCC)OC(=O)CCCCCCCN(CCO)CCCC(=O)OC(CCCCC)CCCCCCCC (stereo not drawn) = 5.88
• CCCCCCCCC(CC)OC(=O)CCCCCN(CCO)CCCCCCCC(=O)OC(CCCCCCCC)CCCCCCCC (stereo not drawn) = 6.67
• CCCCCCCCCOC(=O)CCCCCCCN(CCO)CCCCCCCCCC(=O)OC(CCCCCC)CCCCCC = 6.66
• CCCCCCCCC(CCCCCCCC)OC(=O)CCCCCCCN(CCO)CCCCCCCC(=O)N(C)CCCCCCCC = 7.25
• CCCCCCCCCOC(=O)CCCCCCCN(CCO)CCCCCCC/C=C\C(CCCCCCCC)CCCCCCCC = 6.465
• CCCCCCCCC(CCCCCCCC)OC(=O)CCCCCCCN(CCO)CCCCCC(=O)OC1CCC(CCCCC)CC1 (stereo not drawn) = 6.69
• CCCCCCCCCOC(=O)CCCCCCCN(CCCCCCCC(=O)OC(CCCCCCCC)CCCCCCCC)CC(O)CO (stereo not drawn) = 6.92
• CCCCCCCCC(CCCCCCCC)OC(=O)CCCCCCCN(C)CCCCCCCC(=O)OC(CCCCCCCC)CCCCCCCC = 5.89
• CCCCCCCCCC(=O)OC(C)CCCCCCN(CCO)CCCCCCCOC(=O)C(CCCCCCCC)CCCCCCCC (stereo not drawn) = 6.50
• CCCCCCCCCCCOC(=O)CCCCCN(CCO)CCCCCC(=O)OC(CCCCCCCCCC)CCCCCCCCCC = 6.77
• CCCCCCCCC(CCC)OC(=O)CCCN(CCO)CCCCCCCC(=O)OC(CCCCCCCC)CCCCCCCC (stereo not drawn) = 6.08
• CCCCCCCCCOC(=O)CCCCCCCN(CCO)CCCCCCCC(=O)Oc1ccc(CCCCC)cc1 = 5.29
• CCCCCCCCCOC(=O)CCCCCCCN(CCO)CCCCCCC(=O)OCC(CCCCCCCC)CCCCCCCC = 6.47
• CCCCCCCCCCCCCCN(CCO)CCCCCCCC(=O)OC(CCCCCCCC)CCCCCCCC = 6.73
• CCCCCCCCC(C)OC(=O)CCCN(CCO)CCCCCCCC(=O)OC(CCCCCCCC)CCCCCCCC (stereo not drawn) = 6.51
• CCCCCCCCCOC(=O)CCCCCCCN(CCO)CCCCCCCCCC(CCCCCCCC)CCCCCCCC = 6.580
• CCCCCCCCCOC(=O)CCCCCCCN(C)CCCCCCCC(=O)OC(CCCCCCCC)CCCCCCCC = 6.27
• CCCCCCCCC(CCCCCCCC)OC(=O)CCCCCCCN(CCO)CCCCCCCC(=O)OCC(CCCCCCC)OC (stereo not drawn) = 6.646
• CCCCCCCCCOC(=O)CCCCCCCN(CCO)CCCCCCCC(=O)Oc1ccc(CCCCC)c(CCCCC)c1 = 6.14
• CCCCCCCCCOC(=O)CCCCCCCN(CCO)CCCCCCCC(=O)OC1CCCCCCCCCCCCCC1 = 7.14
• CCCCCCCC/C=C\COC(=O)CCCCCN(CCO)CCCCCC(=O)OC/C=C\CCCCCCCC = 7.71
• CCCCCCCCCC(=O)OCCCCCCCN(CCO)CCCCCCCOC(=O)C(CCCCCCCC)CCCCCCCC = 6.593
• CCCCCCCCCOC(=O)CCCCCCCN(CCO)CCCCCCCOC(=O)C(CCCCCCCC)CCCCCCCC = 6.75

Recorded values, source patent US12263248B2.
